Provenance of the data: patent US20180265515A1

molecular target: isolated recombinant JAK1 kinase domain (Homo sapiens, UniProt P23458); construct: The activity of the isolated recombinant JAK1 and JAK2 kinase domain was measured; assay: JAK1 enzyme assay (Caliper LabChip, Ki); format: biochemical; details: recombinant JAK1 kinase domain, 25 μM ATP
Sequence (P23458 875-1153 limits assumed): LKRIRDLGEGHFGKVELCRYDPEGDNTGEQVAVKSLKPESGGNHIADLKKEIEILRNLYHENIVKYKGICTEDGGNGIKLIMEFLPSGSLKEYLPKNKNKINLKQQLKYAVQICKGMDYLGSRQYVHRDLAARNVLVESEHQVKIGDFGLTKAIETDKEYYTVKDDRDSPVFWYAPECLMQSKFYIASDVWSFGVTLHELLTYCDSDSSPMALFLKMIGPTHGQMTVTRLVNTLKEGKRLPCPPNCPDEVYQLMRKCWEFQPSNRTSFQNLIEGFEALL
pKi: −log10 of the molar value.
reported metric: pKi

Example molecules with recorded pKi:
molecule	pKi
COCCN1CCN(C(=O)Cn2cc(NC(=O)c3cnn4cccnc34)c(-c3cc(SC(C)C)ccc3OC(F)F)n2)CC1 [Example 116]	9.29
CC(C)Sc1ccc(OC(F)F)c(-c2nn(CC(=O)N3CCC(N(CCN4CCOCC4)C4COC4)CC3)cc2NC(=O)c2cnn3cccnc23)c1 [Example 147]	9.14
CSc1ccc(OC(F)F)c(-c2nn(CC(=O)N3CCN(CCCC#N)CC3)cc2NC(=O)c2cnn3cccnc23)c1 [Example 21]	9.57

P = CSc1ccc(OC(F)F)c(-c2nn(CC(=O)N3CCN(C4CCOC4)CC3)cc2NC(=O)c2cnn3cccnc23)c1 (centres unmarked) [Example 54]
Q = CC(C)Sc1ccc(OC(F)F)c(-c2nn(CC(=O)N3CCN(C4CCN(CC(=O)N(C)C)CC4)CC3)cc2NC(=O)c2cnn3cccnc23)c1 [Example 142]
Please choose the item with the lower pKi value from this pair: P and Q Mark your selection by writing its label. Q
